Data provenance: ChEMBL document CHEMBL1139921

- MEASURED_TARGET: Type-1 angiotensin II receptor (Oryctolagus cuniculus, UniProt P34976)
- Sequence (P34976 whole entry): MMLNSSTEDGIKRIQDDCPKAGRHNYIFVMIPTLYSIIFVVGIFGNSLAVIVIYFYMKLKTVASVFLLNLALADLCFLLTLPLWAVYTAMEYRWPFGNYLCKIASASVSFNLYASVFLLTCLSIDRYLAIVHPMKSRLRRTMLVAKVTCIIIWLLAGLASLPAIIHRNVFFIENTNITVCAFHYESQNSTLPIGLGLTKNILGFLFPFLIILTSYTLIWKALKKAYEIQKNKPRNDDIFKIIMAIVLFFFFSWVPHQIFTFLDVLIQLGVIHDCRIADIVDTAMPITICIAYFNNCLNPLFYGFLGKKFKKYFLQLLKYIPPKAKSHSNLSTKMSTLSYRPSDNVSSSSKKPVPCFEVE
- METHOD_DESCRIPTION: Antagonist activity at AT1 receptor assessed inhibition of angiotensin-2-induced contraction of rabbit thoracic aortic rings
- Type: functional
- TEST_PARAMETERS: read-out: pA2 (converted)
ASSAY_READOUT: Kb (nM)
Write the value in nM as a bare number.

Reference set (8 entries):
>>> df
                            compound_smiles  reported
0  CCCc1nc2cccc(C(=O)OC)c2n1Cc1ccc(-n2cccc2-c2nnn[nH]2)cc1      12.6
1  CCCCc1nc2cccc(C(=O)OCC)c2n1Cc1ccc(-n2cccc2-c2nnn[nH]2)cc1      15.8
2  CCCCc1nc2cccc(C(=O)O)c2n1Cc1ccc(-n2cccc2-c2nnn[nH]2)cc1      3.16
3  CCCc1nc2cccc(C(=O)OCC)c2n1Cc1ccc(-n2cccc2-c2nnn[nH]2)cc1      79.4
4  CCCCc1nc2cccc(C(=O)OC)c2n1Cc1ccc(-n2cccc2-c2nnn[nH]2)cc1      3.98
5  COC(=O)c1cccc2nc(C)n(Cc3ccc(-n4cccc4-c4nnn[nH]4)cc3)c12       100
6  CCCCc1nc2cccc(C(=O)O)c2n1Cc1ccc(-n2cccc2C(=O)O)cc1        10
7  CCc1nc2cccc(C(=O)O)c2n1Cc1ccc(-n2cccc2C(=O)O)cc1       316

// below: Kb requested for another molecule
query: For the molecule `CCCc1nc2cccc(C(=O)O)c2n1Cc1ccc(-n2cccc2-c2nnn[nH]2)cc1` , give its measured Kb value.
result: 6.31

* * *

Read-out record for Type-1 angiotensin II receptor (Bos taurus, UniProt P25104): IC50
Write the value in µM as a bare number.

Reference set (5 entries):
                            compound_smiles  assay_readout  reported
0  CCCc1nc2cccc(C(=O)OC)c2n1Cc1ccc(-n2cccc2-c2nnn[nH]2)cc1           IC50     0.032
1  CCc1nc2cccc(C(=O)O)c2n1Cc1ccc(-n2cccc2C(=O)O)cc1           IC50      0.16
2  Cc1nc2cccc(C(=O)O)c2n1Cc1ccc(-n2cccc2C(=O)O)cc1           IC50      0.25
3  CCCCc1nc2cccc(C(=O)O)c2n1Cc1ccc(-n2cccc2C(=O)O)cc1           IC50     0.033
4  COC(=O)c1cccc2nc(C)n(Cc3ccc(-n4cccc4-c4nnn[nH]4)cc3)c12           IC50       0.2

// below: IC50 requested for another compound
query: Give measured IC50 for `CCCCc1nc2cccc(C(=O)OC)c2n1Cc1ccc(-n2cccc2-c2nnn[nH]2)cc1` (Type-1 angiotensin II receptor (Bos taurus, UniProt P25104)).
result: 0.0098

* * *

- MEASURED_TARGET: Type-1 angiotensin II receptor (Oryctolagus cuniculus, UniProt P34976)
- METHOD_DESCRIPTION: Antagonist activity at AT1 receptor assessed inhibition of angiotensin-2-induced contraction of rabbit thoracic aortic rings
- Format: functional
- TEST_PARAMETERS: read-out: pA2 (converted)
ASSAY_READOUT: Kb (nM)
Write the value in nM as a bare number.

Reference set (2 entries):
                            compound_smiles  reported
0  CCCc1nc2cccc(C(=O)O)c2n1Cc1ccc(-n2cccc2C(=O)O)cc1       100
1  Cc1nc2cccc(C(=O)O)c2n1Cc1ccc(-n2cccc2C(=O)O)cc1      1260

// below: Kb requested for another compound
query: Give measured Kb for `CCc1nc2cccc(C(=O)OC)c2n1Cc1ccc(-n2cccc2-c2nnn[nH]2)cc1` (Type-1 angiotensin II receptor (Oryctolagus cuniculus, UniProt P34976)).
result: 31.6
